target: hNET (Homo sapiens); assay: biochemical; type: binding; details: read-out: Inhibition of [125I]RTI-55 binding Ki ± sem, hNET; HEK-hNET membranes
Sequence (P23975 whole entry): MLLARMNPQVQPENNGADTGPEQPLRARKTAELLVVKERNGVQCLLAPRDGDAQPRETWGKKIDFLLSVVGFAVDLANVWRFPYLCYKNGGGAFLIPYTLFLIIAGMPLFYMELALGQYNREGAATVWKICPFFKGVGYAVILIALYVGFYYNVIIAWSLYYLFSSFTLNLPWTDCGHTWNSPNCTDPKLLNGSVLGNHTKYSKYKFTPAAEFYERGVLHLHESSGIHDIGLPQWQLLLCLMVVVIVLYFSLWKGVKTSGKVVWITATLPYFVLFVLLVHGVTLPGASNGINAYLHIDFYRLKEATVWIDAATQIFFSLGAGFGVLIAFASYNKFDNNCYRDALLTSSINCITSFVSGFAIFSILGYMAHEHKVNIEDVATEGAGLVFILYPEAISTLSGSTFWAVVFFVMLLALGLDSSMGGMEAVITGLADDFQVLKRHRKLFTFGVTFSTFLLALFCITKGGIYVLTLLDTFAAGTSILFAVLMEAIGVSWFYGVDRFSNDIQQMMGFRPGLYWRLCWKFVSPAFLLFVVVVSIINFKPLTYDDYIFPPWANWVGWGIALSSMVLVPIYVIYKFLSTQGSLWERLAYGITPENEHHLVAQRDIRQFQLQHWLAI
Reported values of Ki for individual entries
Answer with a number only, understood to be in µM.

CNC(C)C(=O)c1ccc(F)cc1 (stereo not shown): 35
CCCC(C(=O)c1ccc2c(c1)OCO2)N1CCCC1 (stereo not shown): 0.107
CNC(C)C(=O)c1ccccc1 (stereo not shown) [Methcathinone, methcathinone, reference compound]: 4.48

Please turn your attention to the following entry.
input: Test system hNET (Homo sapiens); read-out Ki; what value for CCC(NC)C(=O)c1ccc2c(c1)OCO2 (stereo not shown) ?
output: 7.98

---

biological target: h5-HT2A receptor (Homo sapiens, UniProt P28223); experiment: [125I]DOI binding, HEK-h5-HT2A; conditions: read-out: Inhibition of radioligand binding Ki ± sem, h5-HT2A [125I]DOI
Sequence (P28223 whole entry): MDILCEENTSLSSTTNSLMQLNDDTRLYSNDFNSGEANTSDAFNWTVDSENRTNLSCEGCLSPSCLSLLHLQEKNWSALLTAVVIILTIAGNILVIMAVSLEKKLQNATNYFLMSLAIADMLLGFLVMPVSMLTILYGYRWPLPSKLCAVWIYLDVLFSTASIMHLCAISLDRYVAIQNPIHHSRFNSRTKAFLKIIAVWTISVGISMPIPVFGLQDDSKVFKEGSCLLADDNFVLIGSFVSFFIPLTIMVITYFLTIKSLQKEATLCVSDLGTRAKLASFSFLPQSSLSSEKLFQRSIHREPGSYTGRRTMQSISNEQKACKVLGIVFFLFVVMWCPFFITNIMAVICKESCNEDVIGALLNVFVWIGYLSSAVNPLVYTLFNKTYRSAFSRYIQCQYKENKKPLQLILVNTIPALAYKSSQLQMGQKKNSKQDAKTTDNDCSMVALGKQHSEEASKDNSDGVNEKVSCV
measurement label: pKi
pKi field: float, defined as -log10 of concentration (mol/L).

Observe how each entry below is paired with its result.
CCC(NC)C(=O)c1ccc2c(c1)OCO2 (stereo not drawn): 3.93
CNC(C)C(=O)c1ccccc1 (stereo not drawn) [Methcathinone, methcathinone, reference compound]: 4.53
CNC(C)C(=O)c1ccc(F)cc1 (stereo not drawn): 5.00

input: What value of pKi has been reported for the following compound? CCCC(C(=O)c1ccc2c(c1)OCO2)N1CCCC1 (stereo not drawn)
output: 3.68

input: What value of pKi has been reported for the following compound? CCCC(C(=O)c1ccc2ccccc2c1)N1CCCC1 (stereo not drawn)
output: 4.75

input: What value of pKi has been reported for the following compound? CNC(C)Cc1ccc2c(c1)OCO2 (stereo not drawn) [MDMA, 3,4-methylenedioxymethylamphetamine, reference compound]
output: 5.08

---

target: hSigma1 receptor (Homo sapiens); assay: [3H]; format: binding; details: Inhibition of [3H]pentazocine binding Ki ± sem, hSigma1
Sequence (Q99720 whole entry): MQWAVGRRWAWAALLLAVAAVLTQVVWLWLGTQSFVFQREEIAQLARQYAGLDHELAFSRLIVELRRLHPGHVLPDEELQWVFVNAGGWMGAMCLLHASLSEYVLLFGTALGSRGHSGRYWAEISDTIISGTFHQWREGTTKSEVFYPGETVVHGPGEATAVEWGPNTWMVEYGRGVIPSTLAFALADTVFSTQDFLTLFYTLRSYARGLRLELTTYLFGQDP
measurement label: pKi
pKi field: float, defined as -log10 of concentration (mol/L).

Observe how each entry below is paired with its result.
CNC(C)C(=O)c1ccc(C)cc1 (stereo not shown): 5.11
CNC(C)C(=O)c1ccc2c(c1)OCO2 (stereo not shown): 4.59
O=C(CCCN1CCC2(CC1)C(=O)NCN2c1ccccc1)c1ccc(F)cc1 [Spiperone, reference compound]: 5.88

Please turn your attention to the following entry.
input: What value of pKi has been reported for the following compound? CN[C@@H](C)Cc1ccccc1 [METH, (+)methamphetamine, reference compound]
output: 5.50

---

target: h5-HT2C receptor (Homo sapiens, UniProt P28335); experiment: Inhibition of 5-HT-stimulated IP-1 formation; format: cell-based; conditions: 100 nM 5-HT; normalized to maximal inhibition by SB242084 (1 µM)
Sequence (P28335 33-458): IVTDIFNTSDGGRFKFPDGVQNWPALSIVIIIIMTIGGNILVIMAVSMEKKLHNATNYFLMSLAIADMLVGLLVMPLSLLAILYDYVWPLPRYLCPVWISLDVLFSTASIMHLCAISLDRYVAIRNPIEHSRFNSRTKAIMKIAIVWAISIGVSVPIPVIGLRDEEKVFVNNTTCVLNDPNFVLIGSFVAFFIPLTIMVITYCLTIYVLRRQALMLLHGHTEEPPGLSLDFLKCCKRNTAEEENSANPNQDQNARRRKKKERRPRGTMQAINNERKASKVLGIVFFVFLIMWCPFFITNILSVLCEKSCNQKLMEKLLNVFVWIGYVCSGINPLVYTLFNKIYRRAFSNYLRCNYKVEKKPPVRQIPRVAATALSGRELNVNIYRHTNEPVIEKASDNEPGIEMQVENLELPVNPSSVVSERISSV
measurement label: h5-HT2C Inhibition of 5-HT-stimulated IP-1 formation % maximum inhibition ± sem (%)
Answer with a number only, understood to be in %.

Observe how each entry below is paired with its result.
CCCC(C(=O)c1ccc2ccccc2c1)N1CCCC1 (stereo not drawn): 32
CNC(C)C(=O)c1ccc(F)cc1 (stereo not drawn): 15
CCC(NC)C(=O)c1ccc2c(c1)OCO2 (stereo not drawn): 11

input: What value of h5-HT2C Inhibition of 5-HT-stimulated IP-1 formation % maximum inhibition ± sem has been reported for the following compound? CNC(C)C(=O)c1ccc2c(c1)OCO2 (stereo not drawn)
output: 28.0

input: What value of h5-HT2C Inhibition of 5-HT-stimulated IP-1 formation % maximum inhibition ± sem has been reported for the following compound? CNC(C)C(=O)c1ccc(C)cc1 (stereo not drawn)
output: 66.3

input: What value of h5-HT2C Inhibition of 5-HT-stimulated IP-1 formation % maximum inhibition ± sem has been reported for the following compound? CNC(C)Cc1ccc2c(c1)OCO2 (stereo not drawn) [MDMA, 3,4-methylenedioxymethylamphetamine, reference compound]
output: 9

input: What value of h5-HT2C Inhibition of 5-HT-stimulated IP-1 formation % maximum inhibition ± sem has been reported for the following compound? CNC(C)C(=O)c1ccccc1 (stereo not drawn) [Methcathinone, methcathinone, reference compound]
output: 17.5

input: What value of h5-HT2C Inhibition of 5-HT-stimulated IP-1 formation % maximum inhibition ± sem has been reported for the following compound? CCCC(C(=O)c1ccc2c(c1)OCO2)N1CCCC1 (stereo not drawn)
output: 24.5
